# Measured target: hERG (Homo sapiens)
# Sequence (Q12809 whole entry): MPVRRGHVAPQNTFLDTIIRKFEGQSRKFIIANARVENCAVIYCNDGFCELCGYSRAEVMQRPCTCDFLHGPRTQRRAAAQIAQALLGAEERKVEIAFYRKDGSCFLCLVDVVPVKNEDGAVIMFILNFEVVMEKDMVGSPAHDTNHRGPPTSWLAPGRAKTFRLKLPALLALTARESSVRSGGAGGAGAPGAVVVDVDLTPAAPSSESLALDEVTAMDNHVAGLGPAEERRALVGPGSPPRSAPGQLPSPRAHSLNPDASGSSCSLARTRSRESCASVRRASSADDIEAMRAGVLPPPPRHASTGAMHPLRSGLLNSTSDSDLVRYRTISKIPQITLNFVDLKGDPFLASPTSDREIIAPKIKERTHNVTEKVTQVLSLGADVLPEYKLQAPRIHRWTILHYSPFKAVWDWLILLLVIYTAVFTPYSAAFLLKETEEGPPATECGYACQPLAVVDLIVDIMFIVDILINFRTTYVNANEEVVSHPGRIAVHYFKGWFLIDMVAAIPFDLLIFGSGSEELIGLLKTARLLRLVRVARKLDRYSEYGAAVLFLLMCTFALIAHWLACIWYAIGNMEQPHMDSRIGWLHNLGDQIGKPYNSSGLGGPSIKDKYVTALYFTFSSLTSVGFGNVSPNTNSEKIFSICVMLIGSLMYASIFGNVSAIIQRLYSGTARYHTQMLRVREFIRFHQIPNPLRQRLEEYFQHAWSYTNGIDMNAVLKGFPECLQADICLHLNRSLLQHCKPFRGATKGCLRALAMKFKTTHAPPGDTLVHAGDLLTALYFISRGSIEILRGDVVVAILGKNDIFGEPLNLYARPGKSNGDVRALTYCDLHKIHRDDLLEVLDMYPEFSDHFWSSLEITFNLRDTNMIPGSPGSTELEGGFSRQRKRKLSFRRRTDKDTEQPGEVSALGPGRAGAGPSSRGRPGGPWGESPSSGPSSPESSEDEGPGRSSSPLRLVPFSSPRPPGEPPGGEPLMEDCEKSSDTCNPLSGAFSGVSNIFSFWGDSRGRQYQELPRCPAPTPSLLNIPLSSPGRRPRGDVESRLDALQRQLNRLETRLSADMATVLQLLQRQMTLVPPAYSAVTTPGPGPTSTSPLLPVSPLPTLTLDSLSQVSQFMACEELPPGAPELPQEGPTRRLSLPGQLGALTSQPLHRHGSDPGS
# Experiment: in vitro
Endpoint label: inhibition at 30 µM

Prompt line: Lab note: need inhibition at 30 µM for `COc1ccc2[nH]cc(CCN(C)C)c2c1` on hERG (Homo sapiens), anyone have it?
Response line: 77.8%

All figures here come from patent US20230382858A1.
